Every entry's value here was drawn from PubChem BioAssay (NCI).

System: ACHN renal
assay.protocol: NCI tumour cell line growth inhibition, 48 h
Catalogue of molecules with associated GI50

[
  {
    "molecule": "COc1ccc2c(c1)C(c1ccccc1Cl)=Nc1c(n[nH]c1C)N2",
    "GI50": "> 20.5 µM"
  }
]

Exercise: Which value of GI50 has been reported for O=C(Cc1cccc(OC(F)(F)F)c1)Nc1ccc(CCCCc2nnc(NC(=O)Cc3ccccn3)s2)nn1 in the records?
Key: 20.9 µM

---

Tested on: HCT-15 colon
assay.protocol: NCI tumour cell line growth inhibition, 48 h
reported.property: GI50

Recorded results for 5 molecules are shown here.
[
  {
    "smiles.repr": "Cc1c2c[n+](C(C)C)ccc2c(C)c2c1[nH]c1ccccc12",
    "reported.property": "GI50",
    "val": "52.1 µM"
  },
  {
    "smiles.repr": "Cc1c(C)[n+](=O)c(C)c(C)n1[O-]",
    "reported.property": "GI50",
    "val": "> 100 µM"
  },
  {
    "smiles.repr": "CC(C)NC(=O)OCc1c(COC(=O)NC(C)C)c(-c2ccc(Cl)cc2)n2c1CCC2",
    "reported.property": "GI50",
    "val": "4.07 µM"
  },
  {
    "smiles.repr": "O=C(N/N=C/c1ccccc1O)C(=O)Nc1ccc(F)cc1",
    "reported.property": "GI50",
    "val": "1.86 µM"
  },
  {
    "smiles.repr": "COc1cc(-c2nc3sc4c(c3c(=O)[nH]2)CCCCCC4)cc(OC)c1OC",
    "reported.property": "GI50",
    "val": "0.649 µM"
  }
]

Moving on to the next molecule.
Exercise: Quick one: GI50 of Cc1cc(Cc2cc(C)cc(C(C)(C)C)c2O)c(O)c(C(C)(C)C)c1 ?
Key: 4.29 µM

---

Test system: HOP-92 NSCLC
assay.protocol: NCI tumour cell line growth inhibition, 48 h
Use TGI to assign classes; range list: Low (below 30 µM), Medium (30 µM to below 50 µM), High (50 µM or more)

[
  {
    "compound": "O=C1c2c(nc3ccccc3c2-c2ccccc2)CN1Nc1ccccn1",
    "system": "HOP-92 NSCLC",
    "assigned.label": "High"
  },
  {
    "compound": "c1ccc2c(c1)[nH]c1cnc3c4cccnc4[nH]c3c12",
    "system": "HOP-92 NSCLC",
    "assigned.label": "High"
  }
]

Exercise: Class (by measured TGI) for [N-]=[N+]=NCc1cccc(Nc2cc(=O)[nH]c(=O)[nH]2)c1
Key: High

Exercise: Lab log: CCOc1nc(-c2ccccc2)cc(-c2ccc(N3CCOCC3)cc2)c1C#N — assign TGI category
Key: High

Exercise: Band of COc1ccc(/C=C/C(=O)Oc2cc(O)cc(O)c2)cc1 ?
Key: High

---

Test system: SN12C renal
assay.protocol: NCI tumour cell line growth inhibition, 48 h; in the data active means GI50 below about 0.43 µM; inactive means the rest
Answer with one of the outcomes given here: 1.0 for active, 0.0 for inactive

[
  {
    "compound": "O=c1cc(-c2ccccc2)[nH]n1-c1nc2ccccc2[nH]1",
    "system": "SN12C renal",
    "assigned.label": 0.0
  },
  {
    "compound": "CN1CCN(Cc2ccc(NC(=O)c3ccc(C#Cc4c(N)ncc5ccc(F)cc45)cc3)cc2C(F)(F)F)CC1",
    "system": "SN12C renal",
    "assigned.label": 0.0
  },
  {
    "compound": "COc1ccc2c(c1)C(c1ccccc1Cl)=Nc1c(n[nH]c1C)N2",
    "system": "SN12C renal",
    "assigned.label": 0.0
  },
  {
    "compound": "COc1ccc2c(c1)C(=O)/C(=C/c1ncc([N+](=O)[O-])n1C)O2",
    "system": "SN12C renal",
    "assigned.label": 1.0
  },
  {
    "compound": "CC(C)NC(=O)OCc1c(COC(=O)NC(C)C)c(-c2ccc(Cl)cc2)n2c1CCC2",
    "system": "SN12C renal",
    "assigned.label": 0.0
  },
  {
    "compound": "COc1cc2c[n+](C)c3c4ccccc4ccc3c2cc1OC (tested in a mixture with another compound)",
    "system": "SN12C renal",
    "assigned.label": 0.0
  }
]

Exercise: Answer briefly: the call reported for CCN1c2ccccc2C(Cl)(c2ccc(N(C)C)cc2)c2ccccc21 in this assay.
Key: 0.0

Exercise: State the result this test recorded for C=CC(=O)N[C@H]1CCOC[C@H]1Nc1ncc2cc(-c3c(Cl)c(OC)cc(OC)c3Cl)ccc2n1 .
Key: 0.0

Exercise: // param item: C=CC1CC12C(=O)C1OC2(C)C2C(=O)c3c(O)ccc(O)c3C(=O)C12 (stereo not given) ; yields the recorded call
Key: 0.0

Exercise: Test call, this compound: C=C1C(=O)O[C@H]2[C@H]1CC/C(COC(=O)NCCc1c[nH]c3ccc(OC)cc13)=C\CC[C@@]1(C)O[C@@H]21
Key: 0.0

Exercise: Kindly provide the recorded test outcome for the following compound: COc1ccc(C(=O)c2cc3c(OC)c(OC)c(OC)cc3[nH]2)cc1
Key: 0.0

Exercise: Tell me the recorded outcome of this test for Cc1ccc(-c2cc(C3=CC(=O)C=CC3=O)n(-c3ccc(S(N)(=O)=O)cc3)n2)cc1 .
Key: 0.0

Exercise: Each compound tested received a call. Report the one for c1cn2cc(-c3ccc4cn[nH]c4c3)nc(Nc3ccc(N4CCOCC4)cc3)c2n1 .
Key: 0.0
